# METHOD SUMMARY: gradient 5% acetonitrile 3 min, to 50% in 2 min, to 85% in 15 min, held 3 min, 100 µL/min
# CONDITION SUMMARY: column: Zorbax Extend-C18 2.1 x 50 mm; eluents: water / acetonitrile, 0.1% formic acid
VALUE KIND: RP-LC retention time (s)

As a guide, the following entries are already answered.
Cc1noc(C)c1CC(=O)N1CCCCCCNC(=O)[C@@H]2CCCC[C@@H]21; 739
COc1ccc(OC)c(NS(=O)(=O)c2cc3n(c2)CCCNC3=O)c1; 639
Cc1c(Cl)cccc1NC(=O)Cn1c(=O)n(-c2ccccc2)c(=O)c2c1cc(C)n2C; 927

I. Cc1ccc(CNC(=O)c2ccc3ncnc(N4CCCCC4)c3c2)o1
II. COc1cccc(-c2nc(-c3cn(Cc4ccc(F)cc4)nn3)no2)c1
Higher RP-LC retention time between I and II ? # respond with the chosen item's label II
(II: 983 s, I: 637 s)

----------
# METHOD SUMMARY: gradient 5% acetonitrile 3 min, to 50% in 2 min, to 85% in 15 min, held 3 min, 100 µL/min
# CONDITION SUMMARY: column: Zorbax Extend-C18 2.1 x 50 mm; eluents: water / acetonitrile, 0.1% formic acid
VALUE KIND: RP-LC retention time (s)

CCCNC(=O)N1CCCN(C2=NS(=O)(=O)C(c3ccc(C)c(C)c3)=C2C)CC1; 809
O=C(Cc1cccs1)N(c1ccc(Br)cc1)C1C=CS(=O)(=O)C1 (stereo not given); 833
O=C(O)c1nnn(-c2ccc3c(c2)CCC3)c1-c1ccccn1; 750
O=c1ccn(-c2ccc(F)c(F)c2)nc1-c1nc(-c2ccc3c(c2)OCO3)no1; 877
COc1ccccc1NC(=O)N1CCCC1c1cc(C)on1 (stereo not given); 800

----------
# METHOD SUMMARY: gradient 5% acetonitrile 3 min, to 50% in 2 min, to 85% in 15 min, held 3 min, 100 µL/min
# CONDITION SUMMARY: column: Zorbax Extend-C18 2.1 x 50 mm; eluents: water / acetonitrile, 0.1% formic acid
VALUE KIND: RP-LC retention time (s)

Cc1nn2c(CNC(=O)c3ccsc3)c(-c3ccccc3)nc2s1; 782
COc1ccc(-c2noc(Cc3nnc(-c4cc(F)cc(F)c4)o3)n2)cc1; 1040
c1cc2c(cc1-c1noc(CCC3CCCC3)n1)nnn2CCN1CCOCC1; 780
Cn1cccc1C(=O)Nc1cnn(-c2ncc(N3CCCC3)cn2)c1; 789
CCn1ccc(NC(=O)Nc2cc(C)cc(C)c2)n1; 853

A. Cc1ccc(C)c(NC(=O)Cn2nc3c(N4CCCCCC4)nccn3c2=O)c1
B. CCCCCn1c(=O)c2ccccc2n(Cc2nc(-c3ccc(Cl)cc3)no2)c1=O
Please choose the item with the lower RP-LC retention time value from this pair: A and B # respond with the chosen item's label A
(A: 730 s, B: 1340 s)

----------
# METHOD SUMMARY: gradient 5% acetonitrile 3 min, to 50% in 2 min, to 85% in 15 min, held 3 min, 100 µL/min
# CONDITION SUMMARY: column: Zorbax Extend-C18 2.1 x 50 mm; eluents: water / acetonitrile, 0.1% formic acid
VALUE KIND: RP-LC retention time (s)

CC(C(=O)NCCN1CCCCC1)n1c2ccccc2c2cnn(C)c(=O)c21 (stereo not given); 628

I. O=c1c2sccc2n(Cc2nc(-c3ccc(OC(F)(F)F)cc3)no2)c(=O)n1-c1ccccc1
II. Cc1nc(N2CCN(Cc3ccc4c(c3)OCO4)CC2)nc2c1C(=O)CC(C)C2 (stereo not given)
Please choose the item with the lower RP-LC retention time value from this pair: I and II # respond with the chosen item's label II

Just for reference, the METLIN SMRT retention time set (Domingo-Almenara et al. 2019) is where these values come from.
